Biological target: Orexin type 1 (OX1R) receptor (Homo sapiens, UniProt O43613)
Construct: expressed in transfected cells; host or cells: CHO cells (G418 selection)
Sequence (O43613 whole entry): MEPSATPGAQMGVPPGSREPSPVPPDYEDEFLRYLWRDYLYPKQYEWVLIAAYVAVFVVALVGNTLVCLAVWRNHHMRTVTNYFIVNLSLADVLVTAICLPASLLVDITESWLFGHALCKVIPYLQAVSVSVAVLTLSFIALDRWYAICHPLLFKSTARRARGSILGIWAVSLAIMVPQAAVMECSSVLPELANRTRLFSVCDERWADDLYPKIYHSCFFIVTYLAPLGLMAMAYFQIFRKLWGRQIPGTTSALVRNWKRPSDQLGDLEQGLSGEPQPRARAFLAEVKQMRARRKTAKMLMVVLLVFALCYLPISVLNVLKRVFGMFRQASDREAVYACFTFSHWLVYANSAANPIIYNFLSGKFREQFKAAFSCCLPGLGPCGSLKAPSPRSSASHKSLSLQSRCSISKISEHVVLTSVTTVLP
Assay: In vitro orexin antagonism assay: intracellular calcium measurement (FLIPR), orexin-A 3 nM as agonist
Assay type: cell-based
Conditions: first value of IC50/Kb cell
Output Fulfilled for records whose IC50 is lower than 0.03 µM, Not fulfilled for records at or above 0.03 µM.

{"smiles": "O=C(c1nc2ccccn2c1-c1ccccc1)N1[C@H](Cn2ccc(-c3ccc(F)cn3)n2)C[C@@H]2C[C@@H]21", "classAssignment": "Fulfilled"}
{"smiles": "O=C(c1nn2ccccc2c1-c1ccccc1)N1CCC[C@H]1Cn1ccc(-c2ccc(F)cn2)n1", "classAssignment": "Fulfilled"}
{"smiles": "O=C(c1c(-c2ccccc2F)nn2c1COCC2)N1CCC[C@H]1Cn1ccc(-c2ccc(F)cc2)n1", "classAssignment": "Not fulfilled"}
{"smiles": "O=C(c1c(-c2ccccc2F)nn2c1COCC2)N1CCC[C@H]1Cn1ccc(-c2ccc(F)cn2)n1", "classAssignment": "Not fulfilled"}
{"smiles": "O=C(c1c(-c2ccccn2)nn2ccccc12)N1CCC[C@H]1Cn1ccc(-c2ccccn2)n1", "classAssignment": "Fulfilled"}

Incoming: Below 0.03 µM on IC50? Entry O=C(c1nn2c(c1-c1ccccc1)COCC2)N1CCC[C@H]1Cn1ccc(-c2ccccc2)n1
Outgoing: Fulfilled

Incoming: Also C[C@@]1(COc2cnc(C(F)(F)F)cn2)CCCN1C(=O)c1nn2ccccc2c1-c1ccccc1 ?
Outgoing: Not fulfilled
